# STUDY_SYSTEM: human PAH with the R408W mutation (Homo sapiens, UniProt P00439, R408W)
# Construct: expressed in transfected cells
# Sequence (P00439 whole entry R408W): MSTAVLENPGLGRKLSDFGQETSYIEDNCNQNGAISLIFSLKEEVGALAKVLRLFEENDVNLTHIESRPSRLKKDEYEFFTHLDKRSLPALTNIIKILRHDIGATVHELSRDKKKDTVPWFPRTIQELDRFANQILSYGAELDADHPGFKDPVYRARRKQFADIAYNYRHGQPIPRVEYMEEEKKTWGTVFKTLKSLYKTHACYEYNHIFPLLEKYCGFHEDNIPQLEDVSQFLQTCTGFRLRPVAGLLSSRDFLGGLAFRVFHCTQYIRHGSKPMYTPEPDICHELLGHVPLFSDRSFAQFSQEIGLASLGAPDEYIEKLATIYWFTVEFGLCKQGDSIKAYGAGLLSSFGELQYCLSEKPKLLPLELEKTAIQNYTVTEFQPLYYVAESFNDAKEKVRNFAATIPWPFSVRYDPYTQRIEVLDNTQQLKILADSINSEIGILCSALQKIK
# EXPERIMENT: Cell Based Phenylalanine Flux Assay;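 note: Ten-point dose curve from 2-fold serial dilutions, run in duplicate at 0.5% DMSO final, tracer step used 20 µM sepiapterin and 800 µM labeled phenylalanine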
# REPORTED_CONDITIONS: A375 cells expressing human R408W PAH; 24 hrs compound incubation; 13C-Tyrosine by LC-MS; average where tested multiple times; read-out: AC50
ENDPOINT_LABEL: AC50

Some compounds with known AC50 results, for comparison:
[
  {
    "SMILES_NOTATION": "O=C(c1nnc(-c2cccnc2)o1)N1CCc2[nH]cnc2[C@H]1c1cc2ccccn2n1",
    "AC50": "0.5 to 1 µM"
  },
  {
    "SMILES_NOTATION": "O=C(c1nnc(-c2cnn(C(F)F)c2)o1)N1CCc2[nH]cnc2[C@@H]1c1cc2c(F)cccn2n1",
    "AC50": "> 5 µM"
  },
  {
    "SMILES_NOTATION": "COc1cccn2nc([C@H]3c4nc[nH]c4CCN3C(=O)c3nnc(-c4cnn(C)c4C)o3)cc12",
    "AC50": "> 5 µM"
  }
]

AC50 measured on Cc1c(-c2nnc(C(=O)N3CCc4[nH]cnc4[C@H]3c3cc4cccc(C)n4n3)o2)cnn1C = 0.5 to 1 µM

For reference, reported AC50 for Cc1ccn2nc([C@H]3c4nc[nH]c4CCN3C(=O)c3cnco3)cc2c1 stands at 0.5 to 1 µM

Documented AC50 of Cc1ccc2cc([C@H]3c4nc[nH]c4CCN3C(=O)c3nnc(C(C)(C)F)o3)nn2c1 : > 5 µM

AC50 for CC(C)(O)c1nc(C(F)F)c(C(=O)N2CCc3[nH]cnc3[C@H]2c2cc3ccc(C(F)(F)F)cn3n2)o1 is < 0.5 µM

For this compound ( O=C(c1nnc(C2CC2)o1)N1CCc2[nH]cnc2[C@H]1c1cc2cccc(Cl)n2n1 ), measured AC50 is 0.5 to 1 µM

Lab book: AC50 of Cn1ccc(-c2nnc(C(=O)N3CCc4[nH]cnc4[C@@H]3c3cc4c(C(F)F)cccn4n3)o2)n1 noted as > 5 µM

The compound identified as O=C(c1nnc(C2CC2)o1)N1CCc2[nH]cnc2[C@@H]1c1cc2cccc(F)n2n1 registered its AC50 at 1 to 5 µM

// sample CC(C)(O)c1nc(C(F)(F)F)c(C(=O)N2CCc3[nH]cnc3[C@H]2c2cc3c(F)cccn3n2)o1 , its AC50 was < 0.5 µM

Entry under test: O=C(c1nnc(-c2cccnc2)o1)N1CCc2[nH]cnc2[C@H]1c1cc2cccc(C(F)(F)F)n2n1 . Its AC50 was 0.5 to 1 µM

Record summary for O=C(c1nnc(-c2ccn(C(F)F)n2)o1)N1CCc2[nH]cnc2[C@H]1c1cc2c(Cl)cccn2n1 : reported AC50 = < 0.5 µM

response.value for COc1cccn2nc([C@@H]3c4nc[nH]c4CCN3C(=O)c3cnn4ccccc34)cc12 (field: AC50) = < 0.5 µM

Short answer for CC(C)(C#N)c1nc(C(F)F)c(C(=O)N2CCc3[nH]cnc3[C@@H]2c2cc3ccccn3n2)o1 : AC50 was 1 to 5 µM

Form: compound = Cn1cc(-c2nnc(C(=O)N3CCc4[nH]cnc4[C@H]3c3cc4cccc(F)n4n3)o2)cn1 ; AC50 = 0.5 to 1 µM

Entry Cc1cccn2nc([C@H]3c4nc[nH]c4CCN3C(=O)c3ncnn3C)cc12 ; AC50 = 1 to 5 µM

// sample Cc1cccc2cc([C@@H]3c4nc[nH]c4CCN3C(=O)c3nnc(-c4ccn(C)n4)o3)nn12 , its AC50 was < 0.5 µM

// C[C@@H](O)c1nc(C(F)F)c(C(=O)N2CCc3[nH]cnc3[C@@H]2c2cc3c(Cl)cccn3n2)o1 : AC50 value = 1 to 5 µM

Given item O=C(c1nnc(C2CC2)o1)N1CCc2[nH]cnc2[C@@H]1c1cc2cccc(Cl)n2n1 , the value recorded as its AC50 is 1 to 5 µM

Query Cc1nc([C@H](C)O)oc1C(=O)N1CCc2[nH]cnc2[C@@H]1c1cc2c(C)cccn2n1 yields AC50 of > 5 µM

Recorded AC50 (compound Cc1cccn2nc([C@H]3c4nc[nH]c4CCN3C(=O)c3nnc(-c4ccn(C)n4)o3)cc12 ): > 5 µM

Entry under test: Cc1cccn2nc([C@@H]3c4nc[nH]c4CCN3C(=O)c3oc(C4(O)CC4)nc3C(F)F)cc12 . Its AC50 was < 0.5 µM
